Target: glutamate transporters (GLAST and GLT1)
Construct: Bmax; other: rat brain membrane homogenates; other: 20 nM [3H]-4MG, 15 minutes at 4° C; KD; association t½
Test: [3H]-4MG binding to rat brain membrane homogenates
Settings: 20 nM [3H]-4MG, 15 minutes at 4° C.; FIG. 3, FIG. 4; read-out: IC50 for displacement of [3H]-4MG binding
Measurement kind: IC50 (nM)
One number for each entry, in nM.

Completed entries (count: 2):
[
  {
    "Molecule": "N[C@H](C(=O)O)[C@H]1C[C@H]1C(=O)O",
    "Measurement kind": "IC50",
    "Experimental result": 1200
  },
  {
    "Molecule": "O=C(O)[C@H]1CN[C@H](C(=O)O)C1 [PDC, L-trans-pyrrolidine-2,4-dicarboxylate]",
    "Measurement kind": "IC50",
    "Experimental result": 2900
  }
]

Item N[C@@H](CC(=O)O)C(=O)O [L-aspartate] was tested on glutamate transporters (GLAST and GLT1); the reported IC50 is 7500

---

Target: glutamate transporters (GLAST and GLT1)
Construct: Bmax; other: rat brain membrane homogenates; other: 20 nM [3H]-4MG, 15 minutes at 4° C; KD; association t½
Assay: [3H]-4MG binding to rat brain membrane homogenates
Settings: read-out: IC50 for displacement of [3H]-4MG binding
Measurement kind: IC50 (µM)
Give bare numbers, in µM.

compound N[C@@H](COS(=O)(=O)O)C(=O)O [SOS, L-serine-O-sulphate] , IC50 observed: 40

Data provenance is patent US20020115688A1.
